Experiment: The drug is tested on Z-024 corresponding to pig gut metagenome with ENA study accession number: PRJEB37062 and ENA sample accession number: ERS12561823 for biotransformation under anaerobic condition. The drug concentrations were measured over 9 timepoints collected between 0 and 24 hours of incubation by liquid-chromatography-coupled mass spectrometry (LC–MS); also: call rule not given here
Conditions: 2 µM
property-label: Bacterial Biotransformation

> print(dat)
                                   compound                data.value
1      N#Cc1ccc(C(c2ccc(C#N)cc2)n2cncn2)cc1      Compound metabolized
2  COc1ccc2[nH]c([S+]([O-])Cc3ncc(C)c(OC)c3C)nc2c1 (centres undefined)  Compound NOT metabolized
3   CNC(=C[N+](=O)[O-])NCCSCc1ccc(CN(C)C)o1  Compound NOT metabolized
4  CC[C@H](C)C(=O)O[C@H]1C[C@@H](C)C=C2C=C[C@H](C)[C@H](CC[C@@H]3C[C@@H](O)CC(=O)O3)[C@H]21      Compound metabolized

* * *

Conditions: human gut metagenome, 24 h, 2 µM

compound	Bacterial Biotransformation
CCOC(=O)[C@H](CCc1ccccc1)N[C@@H](C)C(=O)N1[C@H](C(=O)O)C[C@H]2CCCC[C@@H]21 [TRANDOLAPRIL]	Compound NOT metabolized
C[C@@H]1CC[C@H]2[C@@H](C)C(=O)O[C@@H]3O[C@@]4(C)CC[C@@H]1[C@]32OO4 [ARTEMISININ]	Compound metabolized
CN1C(=O)CCS(=O)(=O)C1c1ccc(Cl)cc1 (stereo not drawn) [CHLORMEZANONE]	Compound NOT metabolized
CC(=O)CC(c1ccccc1)c1c(O)c2ccccc2oc1=O (stereo not drawn) [WARFARIN]	Compound metabolized
COc1ccccc1N1CCN(CC(O)COc2cccc3ccccc23)CC1 (stereo not drawn) [NAFTOPIDIL]	Compound NOT metabolized
COc1ccc(CCN(C)CCCC(C#N)(c2ccc(OC)c(OC)c2)C(C)C)cc1OC (stereo not drawn)	Compound metabolized
CCCC1O[C@@H]2C[C@H]3[C@@H]4CCC5=CC(=O)C=C[C@]5(C)[C@H]4[C@@H](O)C[C@]3(C)[C@]2(C(=O)CO)O1 (stereo partly drawn) [BUDESONIDE]	Compound metabolized
CCCCCOC(=O)Nc1nc(=O)n([C@@H]2O[C@H](C)[C@@H](O)[C@H]2O)cc1F [CAPECITABINE]	Compound metabolized
O=P(O)(O)O.c1ccc(CN(CC2=NCCN2)c2ccccc2)cc1 [ANTAZOLINE PHOSPHATE]	Compound NOT metabolized
CN1CC(=O)N2[C@H](c3ccc4c(c3)OCO4)c3[nH]c4ccccc4c3C[C@@H]2C1=O	Compound metabolized
CN1C(C(=O)Nc2ccccn2)=C(O)c2sccc2S1(=O)=O [TENOXICAM]	Compound NOT metabolized
CC(C)N(CCC(C(N)=O)(c1ccccc1)c1ccccn1)C(C)C.O=P(O)(O)O (stereo not drawn) [DISOPYRAMIDE PHOSPHATE]	Compound NOT metabolized
CN(C)CCc1c[nH]c2ccc(Cn3cncn3)cc12.O=C(O)c1ccccc1 [RIZATRIPTAN BENZOATE]	Compound NOT metabolized
CNC(=C[N+](=O)[O-])NCCSCc1ccc(CN(C)C)o1 [RANITIDINE]	Compound NOT metabolized
CC(=O)OCC(=O)[C@@]1(O)[C@@H](C)C[C@H]2[C@@H]3CCC4=CC(=O)C=C[C@]4(C)[C@@]3(F)[C@@H](O)C[C@@]21C [BETAMETHASONE ACETATE]	Compound NOT metabolized
CC[C@H](C)C(=O)O[C@H]1C[C@@H](C)C=C2C=C[C@H](C)[C@H](CC[C@@H]3C[C@@H](O)CC(=O)O3)[C@H]21 [LOVASTATIN]	Compound NOT metabolized
Cc1nc2n(c(=O)c1CCN1CCC(c3noc4cc(F)ccc34)CC1)CCCC2 [RISPERIDONE]	Compound NOT metabolized
Cc1ccccc1N1C(=O)c2cc(S(N)(=O)=O)c(Cl)cc2NC1C (stereo not drawn) [METOLAZONE]	Compound NOT metabolized
O=C(NCc1ccccc1)OCCO [BURAMATE]	Compound NOT metabolized
COc1ccc2c(c1OC)C(=O)O[C@@H]2[C@H]1c2c(cc3c(c2OC)OCO3)CCN1C [NOSCAPINE]	Compound NOT metabolized
C[C@@H](CO)NC(=O)[C@@H]1C=C2c3cccc4[nH]cc(c34)C[C@H]2N(C)C1.O=C(O)/C=C\C(=O)O [ERGONOVINE MALEATE]	Compound metabolized
C#C[C@]1(O)CC[C@H]2[C@@H]3CCC4=CC(=O)CC[C@@H]4[C@H]3CC[C@@]21CC [LEVONORGESTREL]	Compound metabolized
CCCCC1=NC2(CCCC2)C(=O)N1Cc1ccc(-c2ccccc2-c2nnn[nH]2)cc1 [IRBESARTAN]	Compound metabolized
CC(=O)O[C@]1(C(C)=O)CC[C@H]2[C@@H]3C=C(Cl)C4=CC(=O)[C@@H]5C[C@@H]5[C@]4(C)[C@H]3CC[C@@]21C [CYPROTERONE ACETATE]	Compound metabolized
CC(C(=O)O)c1ccc2c(c1)Cc1cccnc1O2 (stereo not drawn) [PRANOPROFEN]	Compound metabolized
CCN(CC)CC#CCOC(=O)C(O)(c1ccccc1)C1CCCCC1.Cl (stereo not drawn) [OXYBUTYNIN CHLORIDE]	Compound metabolized
CN1CCOC(c2ccccc2)c2ccccc2C1 (stereo not drawn) [NEFOPAM]	Compound NOT metabolized
C#C[C@]1(O)CC[C@H]2[C@@H]3CCC4=Cc5oncc5C[C@]4(C)[C@H]3CC[C@@]21C [DANAZOL]	Compound metabolized
COc1cc2c(c(OC)c1OC)-c1ccc(OC)c(=O)cc1[C@@H](NC(C)=O)CC2 [COLCHICINE]	Compound NOT metabolized
CN(C)CCC=C1c2ccccc2C=Cc2ccccc21 [CYCLOBENZAPRINE]	Compound NOT metabolized
CN1CCN(C2=Nc3cc(Cl)ccc3Nc3ccccc32)CC1 [CLOZAPINE]	Compound NOT metabolized
Cc1ccnc2c1NC(=O)c1cccnc1N2C1CC1 [NEVIRAPINE]	Compound NOT metabolized
COc1ccccc1OCC(O)COC(N)=O (stereo not drawn) [METHOCARBAMOL]	Compound NOT metabolized

Values compiled from ChEMBL document CHEMBL5724914.
